This collection of values is drawn from ChEMBL document CHEMBL1201862.

Kindly state IC50 for each of the entries shown.
Molecular target: Polyadenylate-binding protein 1 (Homo sapiens, UniProt P11940)
Sequence (P11940 whole entry): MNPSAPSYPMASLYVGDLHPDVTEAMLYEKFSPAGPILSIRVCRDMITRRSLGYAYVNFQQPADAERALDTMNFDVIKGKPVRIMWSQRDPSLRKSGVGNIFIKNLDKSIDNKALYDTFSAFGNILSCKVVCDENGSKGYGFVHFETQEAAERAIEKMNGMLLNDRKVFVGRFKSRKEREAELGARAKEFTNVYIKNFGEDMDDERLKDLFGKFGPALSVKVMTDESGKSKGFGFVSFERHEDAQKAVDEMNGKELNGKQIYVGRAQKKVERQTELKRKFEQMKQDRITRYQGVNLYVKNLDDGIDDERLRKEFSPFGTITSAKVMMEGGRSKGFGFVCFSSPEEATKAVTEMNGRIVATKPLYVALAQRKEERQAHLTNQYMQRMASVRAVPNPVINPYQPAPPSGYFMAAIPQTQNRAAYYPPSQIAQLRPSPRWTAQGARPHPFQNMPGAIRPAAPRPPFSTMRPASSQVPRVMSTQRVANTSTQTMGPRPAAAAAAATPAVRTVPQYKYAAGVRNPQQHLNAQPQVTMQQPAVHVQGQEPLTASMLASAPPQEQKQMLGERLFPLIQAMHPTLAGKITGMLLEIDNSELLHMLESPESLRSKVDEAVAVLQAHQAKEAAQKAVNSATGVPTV
Assay: PABP1 MLLE–PAM2 binding inhibitor potency, dose response, biochemical, fluorescence polarization, FITC-PAM2 peptide (AID 602259)
Type: functional
Details: read-out: IC50_Mean
The source made the active and inactive calls.

Molecule | IC50
Cc1cc(C)nc(SCNC(=O)c2ccccc2)n1 | > 66 µM (inactive)

# map each molecule to its IC50
1. O=C1NC(=O)C(=Cc2csc3ccccc23)C(=O)N1
2. NC(=S)c1cn([C@@H]2O[C@H](CO)[C@@H](O)[C@H]2O)c2ncnc(N)c12
3. C/C(=N\NC(=S)Nc1cccc(C)c1)c1cc2ccccc2o1
4. COc1cc(/C=C2\C(=O)NC(=O)N(c3ccccc3)C2=O)c([N+](=O)[O-])cc1OC
5. COc1ccc(NC(=O)Nc2ccc([N+](=O)[O-])cc2)cn1

1. > 66 µM (inactive)
2. > 66 µM (inactive)
3. > 66 µM (inactive)
4. 42.8 µM (inactive)
5. 42.1 µM (inactive)

Please supply IC50 for each of the following items, keeping them in order.
1. Cc1ccc2cc(C=C(C#N)C#N)c(Cl)nc2c1
2. COc1ccc2cc(C(c3nnnn3C3CCCC3)N3CCc4ccccc4C3)c(O)nc2c1 (stereo unspecified)

1. 28 µM (inactive)
2. > 66 µM (inactive)

###

Biological target: Protein skinhead-1 (Caenorhabditis elegans)
Sequence (P34707 whole entry): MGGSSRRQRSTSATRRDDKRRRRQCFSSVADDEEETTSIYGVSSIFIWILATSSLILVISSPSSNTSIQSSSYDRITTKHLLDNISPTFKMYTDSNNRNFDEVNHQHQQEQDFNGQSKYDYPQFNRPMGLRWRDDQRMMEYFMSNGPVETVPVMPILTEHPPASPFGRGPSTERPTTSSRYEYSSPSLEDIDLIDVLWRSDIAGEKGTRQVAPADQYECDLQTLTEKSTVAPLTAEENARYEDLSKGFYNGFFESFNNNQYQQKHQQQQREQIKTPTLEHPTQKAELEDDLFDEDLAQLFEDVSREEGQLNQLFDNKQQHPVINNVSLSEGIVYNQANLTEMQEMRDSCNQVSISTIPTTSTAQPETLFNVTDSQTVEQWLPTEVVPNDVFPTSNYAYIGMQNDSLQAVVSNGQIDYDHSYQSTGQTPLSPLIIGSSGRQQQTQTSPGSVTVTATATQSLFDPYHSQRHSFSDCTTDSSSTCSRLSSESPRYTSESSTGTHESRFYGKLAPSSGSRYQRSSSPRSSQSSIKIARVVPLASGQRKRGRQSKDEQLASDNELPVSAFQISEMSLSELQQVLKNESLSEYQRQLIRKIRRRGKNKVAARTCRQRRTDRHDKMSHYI
Assay type: functional
Active and inactive are the calls of the source.
Consider the following molecules; for each one, report its IC50.

Molecule | Reading
COCCN1C(=O)CC(NNC(=O)c2ccc(S(=O)(=O)N3CCCC3)cc2)C1=O (stereo not drawn) | > 100 µM (inactive)
FC(F)(F)C1=CC(c2ccc(Cl)cc2)=NCCN1 | > 100 µM (inactive)

Using the record for CC(OC(=O)/C(C#N)=C/c1ccc(N(C)C)cc1)C(=O)N(C)c1ccccc1 (stereo not drawn) , state its measured IC50. > 100 µM (inactive)

###

Test system: INS1
Test: beta cell apoptosis inhibitors, cytokine rescue, dose response, luminescence, retest (AID 449756);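 further: cell death triggered by IL-1 beta plus TNF-alpha plus IFN-gamma mixture; protective hits raise ATP signal compared with cytokine alone wells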
Type: functional, cell-based
Conditions: Rattus norvegicus
Calls of active or inactive are those of the source.
Reported property: AC50

Reference set (3 entries):
Smiles entry | AC50
Cc1cccc(NC2=C/C(=N/S(=O)(=O)c3cccs3)c3ccccc3C2=O)c1 | 0.803 µM (active)
O=C(N/N=C\c1cc(Cl)ccc1O)c1ccc(S(=O)(=O)N2CCCCC2)cc1 | 1.01 µM (active)
O=C(NC1CCCC1)c1cc(COc2ccc3ncccc3c2)on1 | 3.29 µM (active)

Kindly consider the entry below.
Identify the reported AC50 for the following entry. CCOc1ccc(C(=O)c2cc([N+](=O)[O-])ccc2N2CCOCC2)cc1 0.775 µM (active)

###

Target: Rac GTPase-activating protein 1 (Homo sapiens)
Sequence (Q9H0H5 whole entry): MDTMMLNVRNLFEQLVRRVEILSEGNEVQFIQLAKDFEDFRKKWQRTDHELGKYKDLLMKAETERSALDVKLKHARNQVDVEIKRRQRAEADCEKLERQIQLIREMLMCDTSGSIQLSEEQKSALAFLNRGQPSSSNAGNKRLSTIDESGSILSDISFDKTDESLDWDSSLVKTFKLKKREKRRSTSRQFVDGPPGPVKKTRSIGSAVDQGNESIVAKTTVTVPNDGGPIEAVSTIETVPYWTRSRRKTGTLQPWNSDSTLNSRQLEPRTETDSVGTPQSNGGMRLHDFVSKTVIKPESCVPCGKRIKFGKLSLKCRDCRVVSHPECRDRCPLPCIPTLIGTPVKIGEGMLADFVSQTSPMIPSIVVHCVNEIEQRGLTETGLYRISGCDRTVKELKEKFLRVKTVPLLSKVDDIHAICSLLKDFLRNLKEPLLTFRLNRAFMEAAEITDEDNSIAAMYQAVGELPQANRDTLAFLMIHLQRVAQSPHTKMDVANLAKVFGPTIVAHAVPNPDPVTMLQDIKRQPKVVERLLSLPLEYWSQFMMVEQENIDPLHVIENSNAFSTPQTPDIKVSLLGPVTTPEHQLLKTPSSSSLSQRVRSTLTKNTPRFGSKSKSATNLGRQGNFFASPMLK
Assay: MgcRacGAP GTPase-activating activity inhibitors, confirmation, biochemical, ADP Hunter fluorescence, primary and confirmatory (AID 624330)
Type: functional
Calls of active or inactive are those of the source.
Reported property: IC50

Worked cases, IC50 given:
Smiles entry | IC50
O=C(Nc1ccc(O)cc1)c1cc2ccccc2c(=O)s1 | 23.3 µM (active)
O=S(=O)(O)c1cc(O)c2ccc(Nc3ccccc3)cc2c1 | 40.9 µM (active)
Cn1c(=O)[nH]c(=O)c2c1nc(S)n2Cc1ccccc1 | 26.9 µM (active)
CCn1c(SC(C)C)nnc1-c1cc(-c2ccccc2)sc1N | 31.1 µM (active)
Nc1cc(Br)c(N)c(Br)c1 | 13.5 µM (active)

Report IC50 for every entry below.
1. Oc1ccc(-c2csc(-c3cccnc3)n2)cc1O
2. O=C(CCc1c[nH]c2ccccc12)NCCc1ccc(O)cc1
3. CN(C)c1ccc(NC(=O)COC(=O)c2ccc3c(c2)OCO3)cc1
4. COc1ccc(/C=N\NC(=O)c2ccc(O)nn2)cc1O
5. COc1ccc(Br)cc1CNc1ccc(O)cc1

1: 9.47 µM (active); 2: 112 µM (active); 3: 63.3 µM (active); 4: 26.5 µM (active); 5: 26.8 µM (active)

###

Molecular target: Ubiquitin-conjugating enzyme E2 N (Homo sapiens, UniProt P61088);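 further: Dose-response confirmation in a TR-FRET assay detecting UBC13-driven polyubiquitin chain formation, inhibition measured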
Sequence (P61088 whole entry): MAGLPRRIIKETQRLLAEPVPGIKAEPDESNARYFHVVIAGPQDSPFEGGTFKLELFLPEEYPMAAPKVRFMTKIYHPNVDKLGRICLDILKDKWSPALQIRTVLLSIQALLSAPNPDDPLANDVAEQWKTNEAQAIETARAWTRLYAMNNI
Format: functional
Active and inactive are the calls of the source.
Respond with a class label; see active, inactive

Would you please look over these solved cases?
Compound | Classification
CCc1cccc2c(C(=O)C(NC(C)CC)c3ccccc3)c[nH]c12 (centres undefined) | active
CCCS(=O)(=O)c1ncc(Cl)c(C(=O)Nc2ccc(S(=O)(=O)Nc3ncccn3)cc2)n1 | active
Oc1ccc(C2=NN=C(NCc3ccc4c(c3)OCO4)SC2)c(O)c1 | inactive

Could you please tell me the result logged for Cc1nn(CC(=O)NCCCN2CCC(Cc3ccccc3)CC2)c(=O)c2cc(-c3ccccc3)nn12 in this assay? active

###

Biological target: Corticotropin-releasing factor receptor 2/Corticotropin-releasing factor-binding protein (Homo sapiens, UniProt P24387+Q13324)
Sequence (Q13324 whole entry): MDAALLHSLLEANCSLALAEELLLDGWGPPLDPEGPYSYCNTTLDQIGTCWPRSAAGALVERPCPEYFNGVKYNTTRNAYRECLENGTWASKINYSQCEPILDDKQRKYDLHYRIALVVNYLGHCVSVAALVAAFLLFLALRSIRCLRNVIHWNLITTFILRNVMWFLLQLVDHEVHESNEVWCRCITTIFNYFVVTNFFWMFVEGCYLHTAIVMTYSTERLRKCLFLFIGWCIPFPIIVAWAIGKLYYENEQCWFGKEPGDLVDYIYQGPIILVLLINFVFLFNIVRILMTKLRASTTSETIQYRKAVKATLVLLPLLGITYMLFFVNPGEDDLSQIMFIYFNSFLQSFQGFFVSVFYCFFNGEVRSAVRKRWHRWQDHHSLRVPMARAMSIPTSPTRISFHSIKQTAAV
Sequence (P24387 whole entry): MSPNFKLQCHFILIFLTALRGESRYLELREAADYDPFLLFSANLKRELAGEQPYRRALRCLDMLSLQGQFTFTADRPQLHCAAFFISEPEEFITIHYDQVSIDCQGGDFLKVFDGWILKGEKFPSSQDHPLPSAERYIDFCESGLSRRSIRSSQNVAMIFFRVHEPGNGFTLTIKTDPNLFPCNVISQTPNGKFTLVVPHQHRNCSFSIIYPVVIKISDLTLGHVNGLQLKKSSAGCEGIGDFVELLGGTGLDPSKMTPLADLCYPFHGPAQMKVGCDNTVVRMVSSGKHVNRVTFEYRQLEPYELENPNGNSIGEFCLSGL
Experiment: activators of CRF receptor 2 with binding protein – uHTS hits, confirmation (AID 602473)
Type: functional
Conditions: read-out: EC50_Mean
Calls of active or inactive are those of the source.
Hi there, use one of these labels in your reply, thanks! active, inactive

Known results for molecules:
Molecule | Classification
CCN(C[C@H]1N[C@@](Cc2ccccc2)(C(=O)OC)[C@H]2C(=O)N(Cc3ccccc3)C(=O)[C@@H]12)C(=O)C1CCCCC1 | active
CC(C)c1ccc(C(c2c(O)oc3ccccc3c2=O)c2c(O)oc3ccccc3c2=O)cc1 | inactive
Cc1ccc(NS(=O)(=O)c2cccc3nsnc23)cc1 | inactive
COc1ccccc1Nc1nc(N)nc(CSC(=S)N2CC(C)CC(C)C2)n1 (stereo not given) | inactive

In the following, a different molecule is considered.
Please state the recorded outcome for this molecule: O=[N+]([O-])c1cccc(COc2ccc(CN3CCOCC3)cc2)c1 inactive
